Provide the recorded EC50 for the entries that follow.
# Tested on: HCT-15
# MEASUREMENT PROTOCOL: ATP luminescence proliferation assay, HCT-15
# Format: cell-based, human
# APPLIED CONDITIONS: Homo sapiens; ATP luminescence, HCT-15, 72 h incubation; read-out: EC50 HCT-15 (72 h)
Answer format reminder: number followed by unit.

[ask] Fill in reported EC50 for this entry: Nc1ccc(C(=O)Nc2ccc3[nH]c(C(=O)N4C[C@@H](CCl)c5c4cc(O)c4ccccc54)cc3c2)cc1 [CBI, reference compound]
[reply] 3.4 nM

[ask] Please give the documented EC50 of COc1cccc2c1C(=O)c1c(O)c3c(c(O)c1C2=O)C[C@@](O)(C(=O)CO)C[C@@H]3O[C@H]1C[C@H](N)[C@H](O)[C@H](C)O1 [Dox, doxorubicin, reference compound]
[reply] 600 nM

Cited source for all entries: patent US20130204033A1
